This collection of values is drawn from the supplement of paper PMC10567573.

# experimentSummary: protein stability index of a GFP-peptide fusion (GPS, HEK-293T) (PSI 1-6); higher = more stable;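 also: 24-mer peptide tiles fused after GFP, lentivirally expressed, FACS-sorted into six equal bins by GFP/DsRed ratio, decoded by Illumina sequencing, PSI is the read-weighted mean bin number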
# recordedConditions: treatment: DMSO; c terminus: a fixed tail appended
Classification field. Basis: protein stability index. Definitions: low interval (below 3), middle interval (3 to below 4), high interval (4 or more)

Query: Sort QDDSKPTQRQFTILNFNDLMSSAV [AASDHPPT] into one of the categories.
Result: low interval

Query: Sort PLLPPAMGTEPAPSAPEALHSLPG [TBX6] into one of the categories.
Result: high interval

Query: Sort QLAQLRCEMEQQSQEYQILLDVKT [KRT16] into one of the categories.
Result: middle interval

Query: Sort DLKNVKSKIGSTDNIKYQPKGGQV [MAP2] into one of the categories.
Result: middle interval

Query: Sort ASLGREESRAPSPLLHKDSASLEV [CBY2] into one of the categories.
Result: high interval

Query: Sort AVGSGERRGGGPVFPAPVVGSGGA [ZBTB22] into one of the categories.
Result: high interval

---

# experimentSummary: protein stability index of a GFP-peptide fusion (GPS, HEK-293T) (PSI 1-6); higher = more stable
# recordedConditions: treatment: DMSO; c terminus: a fixed tail appended
y means recorded protein stability index is 4 or above; n means it is below 4.

Query: protein stability index >= 4 for FCLLSCGILTFLAVLGRYVPGLLL [RETREG3] ?
Result: n

Query: protein stability index >= 4 for NGINLFDTAEVYAAGKAEVVLGNI [KCNAB2] ?
Result: n

Query: protein stability index >= 4 for GESFPAQVPSGEDQTALSLEECLR [NFE2L1] ?
Result: y

Query: protein stability index >= 4 for GLIPTGSGRHPSHSTTPSGPGDEV [ARFIP2] ?
Result: y

Query: protein stability index >= 4 for VGVDGVRAFLQTYSHEVSLTADSR [PCDHGA10] ?
Result: n

Query: protein stability index >= 4 for DALDSEGRDSEGPAEGEGRLGRCM [KCNG1] ?
Result: y

Query: protein stability index >= 4 for EPYPSQLLKPIPEYSPEEESEPPA [TRAF3IP2] ?
Result: y

Query: protein stability index >= 4 for MSSIICEGDTVSQELLDTVLVNLV [PDS5B] ?
Result: n

Query: protein stability index >= 4 for LEKEQVAHIRAERDILVEADGAWV [STK38L] ?
Result: n

---

Provide the recorded protein stability index for the entries that follow.
# experimentSummary: protein stability index of a GFP-peptide fusion (GPS, HEK-293T) (PSI 1-6); higher = more stable
# recordedConditions: treatment: MLN4924 1 uM, 8 h; c terminus: a fixed tail appended

Query: Fill in the blank: the reported protein stability index of ANGEIQRHAEQQALRLEVRAGPDS [CARM1] is ____.
Result: 4.74

Query: Fill in the blank: the reported protein stability index of EHQNKRSPLHAAAEAGHVDICHML [EHMT1] is ____.
Result: 3.94

Query: Fill in the blank: the reported protein stability index of KLLMADQDSPLDLTVRKSQSEPSE [LCOR] is ____.
Result: 4.92

Query: Fill in the blank: the reported protein stability index of YDFMNSAFSPIVILTERVSLPFKP [MIA2] is ____.
Result: 2.17

Query: Fill in the blank: the reported protein stability index of TQSDEENGRACEMNGEECAEDLRM [IKZF1] is ____.
Result: 5.66

Query: Fill in the blank: the reported protein stability index of SELQREMEALAAETNLLLAQKQRL [TEKT4] is ____.
Result: 4.2

Query: Fill in the blank: the reported protein stability index of YDYPEEEQLSGAGYRVSAALEEAD [EID1] is ____.
Result: 5.22

Query: Fill in the blank: the reported protein stability index of LFSEASECMLLVFGIDVKEVDPTG [MAGEA10] is ____.
Result: 2.54

Query: Fill in the blank: the reported protein stability index of CLTCGKSFRQGMHLTRHQRTHTGE [ZNF263] is ____.
Result: 3.98

Query: Fill in the blank: the reported protein stability index of LAVLGADERIFSLTRRLAHGEELR [HAGHL] is ____.
Result: 2.81

Query: Fill in the blank: the reported protein stability index of SFRENWQRAWVRALNEQACRNGSS [C2CD2L] is ____.
Result: 2.45

Query: Fill in the blank: the reported protein stability index of NIWVCYASYVVFRIIYMLLITIAT [SLC19A2] is ____.
Result: 3.14

Query: Fill in the blank: the reported protein stability index of TINNFSFCREEMGEVLKSSTFSSG [SPOPL] is ____.
Result: 2.53

Query: Fill in the blank: the reported protein stability index of PTLAKFSPYLGQMINLRRLLLSHI [PRAME] is ____.
Result: 2.15

Query: Fill in the blank: the reported protein stability index of PPTINGIKGLQRKERLKPAHIHLQ [KRT34] is ____.
Result: 3.59

Query: Fill in the blank: the reported protein stability index of FPSLQVTAILIECGADVNVRDSDD [FEM1C] is ____.
Result: 2.37

Query: Fill in the blank: the reported protein stability index of GAAEEARRLEQRWGFGLEELYGLA [ACBD3] is ____.
Result: 2.99

Query: Fill in the blank: the reported protein stability index of MNALLEQKEQQERLREAAALGDIR [ANKRD40] is ____.
Result: 4.76

Query: Fill in the blank: the reported protein stability index of KTPYDTSRRQEKSAGDADPENGEI [ELOA2] is ____.
Result: 5.51

Query: Fill in the blank: the reported protein stability index of EGENYQKGERGEDSSEEKHLEEPG [CHGB] is ____.
Result: 5.57

Query: Fill in the blank: the reported protein stability index of STDPNIVRKKERGREEKCVWKHGI [TAF7L] is ____.
Result: 3.51

Query: Fill in the blank: the reported protein stability index of ELQSQLSMKASLEGNLAETENRYC [KRT17] is ____.
Result: 4.18

Query: Fill in the blank: the reported protein stability index of TIDNDIVSMEIFFKAWLHNSGTDQ [M1AP] is ____.
Result: 2.36

Query: Fill in the blank: the reported protein stability index of KETLAVNYEKEEEFLTNELSRKLM [CCDC6] is ____.
Result: 4.44

Query: Fill in the blank: the reported protein stability index of SGISFPSVVDHPMPEERASKYENY [HESX1] is ____.
Result: 4.22

Query: Fill in the blank: the reported protein stability index of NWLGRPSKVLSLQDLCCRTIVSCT [RAB40A] is ____.
Result: 2.88
